# measured.target: full-length beta-Catenin (Uniprot ID P35222) (Homo sapiens)
# Construct: 10 nM full-length beta-Catenin (Uniprot ID P35222)
# Sequence (P35222 whole entry): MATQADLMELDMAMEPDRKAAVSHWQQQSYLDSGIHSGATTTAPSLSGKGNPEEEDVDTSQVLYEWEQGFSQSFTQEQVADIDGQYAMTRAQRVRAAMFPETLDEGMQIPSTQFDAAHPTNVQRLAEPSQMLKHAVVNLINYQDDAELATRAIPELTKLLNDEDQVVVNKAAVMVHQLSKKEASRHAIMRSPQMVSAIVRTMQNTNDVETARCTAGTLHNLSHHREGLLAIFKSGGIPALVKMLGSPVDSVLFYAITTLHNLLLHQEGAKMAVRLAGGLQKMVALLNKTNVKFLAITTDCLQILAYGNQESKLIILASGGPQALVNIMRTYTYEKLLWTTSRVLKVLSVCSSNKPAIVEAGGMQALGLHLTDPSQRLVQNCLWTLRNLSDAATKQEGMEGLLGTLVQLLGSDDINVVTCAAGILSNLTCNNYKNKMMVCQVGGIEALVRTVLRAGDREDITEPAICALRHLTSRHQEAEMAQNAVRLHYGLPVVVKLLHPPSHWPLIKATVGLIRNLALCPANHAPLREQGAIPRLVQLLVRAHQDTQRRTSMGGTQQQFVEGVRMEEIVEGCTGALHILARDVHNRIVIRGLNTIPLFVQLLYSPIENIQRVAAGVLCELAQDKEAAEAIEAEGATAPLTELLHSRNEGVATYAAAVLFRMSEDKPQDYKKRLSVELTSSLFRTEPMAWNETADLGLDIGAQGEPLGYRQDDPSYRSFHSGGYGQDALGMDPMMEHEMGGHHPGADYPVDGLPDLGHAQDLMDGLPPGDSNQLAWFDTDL
# assay.remarks: Fluorescence polarization IC50 (beta-catenin / 5FAM-TCF4 10-53 competition)
# Assay type: binding
# condition.set: fluorescence polarization; read-out: beta-Catenin FP IC50
pIC50: −log10 of the molar value.
reported.endpoint: pIC50

INSERT INTO results (compound, experimental_result) VALUES
  ('CC(=O)N1CCC[C@]12CC=CCCCC1(CCCC=CCCCOC(=O)N3CC[C@@](C(=O)N[C@@H](Cc4ccsc4)C(=O)N[C@@H](Cc4csc5ccccc45)C(=O)N[C@@H](CCC(N)=O)C(N)=O)(C3)NC(=O)[C@H](CC(C)C)NC(=O)[C@H](Cc3ccccc3)NC(=O)[C@H](C)NC(=O)[C@H](CCCN3CCC(F)(F)CC3)NC(=O)[C@H](CC(=O)O)NC(=O)[C@H](CC(=O)O)NC1=O)NC(=O)[C@H](CC(C)(C)C)NC(=O)[C@H](CC(=O)O)NC2=O (stereo partly drawn) [I-1482]', 8.15),
  ('CC(=O)N1CCC[C@]12CC=CCCCC1(CCCC=CCCCOC(=O)N3CC[C@@](C(=O)N[C@@H](Cc4ccccc4Cl)C(=O)N[C@@H](Cc4csc5ccccc45)C(=O)N[C@@H](CCC(N)=O)C(=O)N[C@@H](C)CO)(C3)NC(=O)[C@H](CC(C)C)NC(=O)[C@H](Cc3ccccc3)NC(=O)[C@H](C)NC(=O)[C@H](C)NC(=O)[C@H](Cc3cccc(C(=O)O)c3)NC(=O)[C@H](CC(=O)O)NC1=O)NC(=O)[C@H](CC(C)(C)C)NC(=O)[C@H](CC(=O)O)NC2=O (stereo partly drawn) [I-1673]', 7.55),
  ('CC(=O)N1CCC[C@]12CC=CCCCC1(CCCC=CCCCOC(=O)N3CC[C@@](C(=O)N[C@@H](Cc4ccccc4C(F)(F)F)C(=O)N[C@@H](Cc4csc5ccccc45)C(=O)N[C@@H](CCC(N)=O)C(=O)N[C@@H](CC(C)C)C(=O)N[C@H](CCC(N)=O)C(N)=O)(C3)NC(=O)[C@H](CC(C)C)NC(=O)[C@H](Cc3ccccc3)NC(=O)[C@H](C)NC(=O)[C@H](C)NC(=O)[C@H](Cc3cccc(C(=O)O)c3)NC(=O)[C@H](CC(=O)O)NC1=O)NC(=O)[C@H](CC(C)(C)C)NC(=O)[C@H](CC(=O)O)NC2=O (stereo partly drawn) [I-2398]', 7.55),
  ('CC(=O)N1CCC[C@]12CCCCCCC1(CCCCCCCCOC(=O)N3CC[C@@](C(=O)N[C@@H](Cc4ccsc4)C(=O)N[C@@H](Cc4csc5ccccc45)C(=O)N[C@@H](Cc4cccc(C(N)=O)c4)C(N)=O)(C3)NC(=O)[C@H](CC(C)C)NC(=O)[C@H](Cc3ccccc3)NC(=O)[C@H](C)NC(=O)[C@H](C)NC(=O)[C@H](CN(CC(=O)O)CC(F)(F)F)NC(=O)[C@H](CC(=O)O)NC1=O)NC(=O)[C@H](CC(C)(C)C)NC(=O)[C@H](CC(=O)O)NC2=O (stereo partly drawn) [I-1718]', 6.42),
  ('CC(=O)N1Cc2cccc(c2)OCC=CCCCC2(CCCC=CCCCOC(=O)N3CC[C@@](C(=O)N[C@@H](Cc4ccsc4)C(=O)N[C@@H](Cc4csc5ccccc45)C(=O)N[C@@H](CCC(N)=O)C(N)=O)(C3)NC(=O)[C@H](CC(C)C)NC(=O)[C@H](Cc3ccccc3)NC(=O)[C@H](C)NC(=O)[C@H](C)NC(=O)[C@H](CN(CC(=O)O)CC(F)(F)F)NC(=O)[C@H](CC(=O)O)NC2=O)NC(=O)[C@H](CC(C)(C)C)NC(=O)[C@@H]1CC(=O)O (stereo partly drawn) [I-2550]', 5.76),
  ('CC[C@H](C)[C@@H]1NC(=O)C[C@H](C(=O)O)NC(=O)[C@]2(CC=CCCCC3(CCCC=CCCCCCC[C@@](C)(C(=O)N[C@@H](Cc4ccccc4)C(=O)N[C@@H](Cc4csc5ccccc45)C(=O)N[C@@H](CCC(N)=O)C(N)=O)NC(=O)[C@H](CCC(N)=O)NC(=O)[C@H](Cc4ccccc4)NC(=O)[C@H](C)NC(=O)[C@H](C)NC(=O)[C@H](CCC(=O)O)NC(=O)[C@H](CC(=O)O)NC3=O)NC1=O)CCCN2C(C)=O (stereo partly drawn) [I-668]', 6.17),
  ('CC(=O)N1CCC[C@]12CC=CCCCC1(CCCC=CCCCOC(=O)N3CC[C@@](C(=O)N[C@@H](Cc4ccsc4)C(=O)N[C@@H](Cc4csc5ccccc45)C(=O)N[C@@H](CCC(=O)N4CCN(CCCN(C)C)CC4)C(N)=O)(C3)NC(=O)[C@H](CC(C)C)NC(=O)[C@H](Cc3ccccc3)NC(=O)[C@H](C)NC(=O)[C@H](C)NC(=O)[C@H](CN(CC(=O)O)CC(F)(F)F)NC(=O)[C@H](CC(=O)O)NC1=O)NC(=O)[C@H](CC(C)(C)C)NC(=O)[C@H](CC(=O)O)NC2=O (stereo partly drawn) [I-1800]', 7.89),
  ('CC(=O)N1CCC[C@]12CC=CCCCC1(CCCC=CCCCOC(=O)N3CC[C@@](C(=O)N[C@@H](Cc4ccsc4)C(=O)N[C@@H](Cc4csc5ccccc45)C(=O)N[C@@H](CCC(N)=O)C(N)=O)(C3)NC(=O)[C@H](CC(N)=O)NC(=O)[C@H](Cc3ccccc3)NC(=O)[C@H](C)NC(=O)[C@H](C)NC(=O)[C@H]([C@@H](C)O)NC(=O)[C@H](CC(N)=O)NC1=O)NC(=O)[C@H](CC(C)(C)C)NC(=O)[C@H](Cc1cccc(C(=O)O)c1)NC2=O (stereo partly drawn) [I-2135]', 5.47),
  ('CC(=O)N1CCC[C@]12CC=CCCCC1(CCCC=CCCCOC(=O)N3CC[C@@](C(=O)N[C@@H](Cc4ccsc4)C(=O)N[C@@H](Cc4csc5ccccc45)C(=O)N[C@@H](CCC(N)=O)C(N)=O)(C3)NC(=O)[C@H](CC3CCCCC3)NC(=O)[C@H](Cc3ccccc3)NC(=O)[C@H](C)NC(=O)[C@H](C)NC(=O)[C@H](CN(CC(=O)O)CC(F)(F)F)NC(=O)[C@H](CC(=O)O)NC1=O)NC(=O)[C@H](CC(C)(C)C)NC(=O)[C@H](CC(=O)O)NC2=O (stereo partly drawn) [I-1774]', 7.55);
